Values were extracted from ChEMBL document CHEMBL4732225.

test: Volume of distribution at steady state in Sprague-Dawley rat at 5 mg/kg, po or 1.25 mg/kg, iv; type: ADME, organism-based; details: in vivo, read-out: Vdss
property: Vd (L/kg)
The answer is to be given in L/kg; state only the numeric part.

query: Dear colleague, I am looking for the recorded Vd of the following molecule: C[C@H]1Cc2[nH]nc(-c3cscn3)c2CN1C(=O)Nc1ccc(F)c(C#N)c1
result: 2.97

----------
test: Ratio of drug level in liver to plasma in Sprague-Dawley rat at 5 mg/kg, po or 1.25 mg/kg, iv; format: ADME, organism-based; conditions: liver and plasma
property: Kp
Form: value (number only, do not type unit).

query: Dear colleague, I am looking for the recorded Kp of the following compound: C[C@H]1Cc2[nH]nc(-c3cscn3)c2CN1C(=O)Nc1ccc(F)c(C#N)c1
result: 17

----------
test: Cmax in Sprague-Dawley rat at 5 mg/kg, po; assay type: ADME, organism-based; design: route oral, dose 5 mg/kg; details: in vivo
property: Cmax (ng/mL)
The answer is to be given in ng/mL; state only the numeric part.

query: Dear colleague, I am looking for the recorded Cmax of the following compound: C[C@H]1Cc2[nH]nc(-c3cscn3)c2CN1C(=O)Nc1ccc(F)c(C#N)c1
result: 73

----------
assay: Cmax in Beagle dog at […], po; assay type: ADME, organism-based, Canis lupus familiaris; design: route oral, dose 2.5 mg/kg; conditions: in vivo
property: Cmax

query: Dear colleague, I am looking for the recorded Cmax of the following compound: C[C@H]1Cc2[nH]nc(-c3cscn3)c2CN1C(=O)Nc1ccc(F)c(C#N)c1
result: 472 ng/mL

----------
assay: Half life in Sprague-Dawley rat at 5 mg/kg, po or 1.25 mg/kg, iv; format: ADME, organism-based; conditions: in vivo
property: half-life (h)
The answer is to be given in h; state only the numeric part.

query: Dear colleague, I am looking for the recorded half-life of the following compound: C[C@H]1Cc2[nH]nc(-c3cscn3)c2CN1C(=O)Nc1ccc(F)c(C#N)c1
result: 2.28

----------
test: Half life in Beagle dog at […], po or 1 mg/kg, iv; format: ADME, organism-based, Canis lupus familiaris; conditions: in vivo, dose 2.5 mg/kg
property: half-life

query: Dear colleague, I am looking for the recorded half-life of the following compound: C[C@H]1Cc2[nH]nc(-c3cscn3)c2CN1C(=O)Nc1ccc(F)c(C#N)c1
result: 2.17 h

----------
assay: Tmax in Sprague-Dawley rat at 5 mg/kg, po; format: ADME, organism-based; details: in vivo
property: Tmax

query: Dear colleague, I am looking for the recorded Tmax of the following molecule: C[C@H]1Cc2[nH]nc(-c3cscn3)c2CN1C(=O)Nc1ccc(F)c(C#N)c1
result: 6 h

----------
assay: Metabolic stability in human microsomes assessed as intrinsic clearance; assay type: ADME, Microsome
# log10 CLint scaled listing for each entry below
Hey, these are logged values: log10 of CLint scaled, mL/min/kg being the unit before logging.

{"columns": ["structure smiles", "log10 CLint scaled"],
 "data": [
  ["CC[C@H]1Cc2[nH]nc(-c3ccccc3)c2CN1C(=O)Nc1cccc(Cl)c1", 1.34]
]}

query: Dear colleague, I am looking for the recorded log10 CLint scaled of the following compound: C[C@H]1Cc2[nH]nc(-c3cscn3)c2CN1C(=O)Nc1ccc(F)c(Cl)c1
result: 1.32

query: Dear colleague, I am looking for the recorded log10 CLint scaled of the following compound: O=C(Nc1cccc(Cl)c1)N1CCc2[nH]nc(-c3ccsc3)c2C1
result: 2.20

query: Dear colleague, I am looking for the recorded log10 CLint scaled of the following compound: C[C@@H]1Cc2[nH]nc(-c3ccccc3)c2CN1C(=O)Nc1cccc(Cl)c1
result: 1.63

query: Dear colleague, I am looking for the recorded log10 CLint scaled of the following compound: O=C(Nc1cccc(Cl)c1)N1CCc2[nH]nc(-c3cocn3)c2C1
result: 1.70
